Recorded Flow data, one value per entry.
# system-under-test: T1, cynomolgus monkey nectin-4 protein expressed on the surface of HEK 293 cells (cynomolgus monkey, UniProt A0A2K5WES1 32-510)
# T1 construct: whole, on cells
# T1 sequence: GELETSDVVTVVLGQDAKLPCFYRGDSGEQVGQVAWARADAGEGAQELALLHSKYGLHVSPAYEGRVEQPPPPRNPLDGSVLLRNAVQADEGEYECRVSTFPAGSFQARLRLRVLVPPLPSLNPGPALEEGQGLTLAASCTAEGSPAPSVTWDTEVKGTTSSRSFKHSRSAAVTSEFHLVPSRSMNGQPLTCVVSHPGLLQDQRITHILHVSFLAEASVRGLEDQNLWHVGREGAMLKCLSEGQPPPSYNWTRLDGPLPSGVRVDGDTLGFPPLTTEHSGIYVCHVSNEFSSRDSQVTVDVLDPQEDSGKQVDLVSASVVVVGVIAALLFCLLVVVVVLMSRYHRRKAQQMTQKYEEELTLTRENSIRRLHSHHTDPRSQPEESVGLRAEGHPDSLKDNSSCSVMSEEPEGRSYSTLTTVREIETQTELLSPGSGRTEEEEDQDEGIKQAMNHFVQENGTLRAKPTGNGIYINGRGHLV
# measurement-protocol: flow cytometry, HEK 293 cells overexpressing the target

{"columns": ["binder", "Flow data"],
 "data": [
  ["Nectin-4 7 E8H/7 E8L (recombinant chimeric antibody) (antibody, V domains shown) VH: QVQLKQSGPGLVQPSQSLSITCTVSGFSLATYGVHWVRQSPGKGLEWLGVIWSGGSTDYNAAFISRLSISKDNSKSQVFFKMNSLQADDTAIYYCARNSHWYFDVWGTGTTVTVSS VL: DIVMTQSQKFMSTSVGDRVSVTCKASQNVVTNVAWYQQKPGQSPKALIYSASYRYSGVPDRFTGSGSGTDFTLTISHVQSEDLAEYFCHQYNNYPYTFGGGTKLEIK", 10400],
  ["Nectin-4 5D9H/5D9L (recombinant chimeric antibody) (antibody, V domains shown, also called Nectin-4 5D9 chimeric mAb) VH: QVQLKQSGPGLVQPSQSLSITCTVSGFSLTNYGVHWVRQSPGKGLEWLGVIWSGGSTDYNAAFVSRLSISRDNSKSQVFFKMNSLQADDTAIYYCARSGKWYYFDYWGQGTTLTVSS VL: DIQMTQSPASLSVSVGETVTITCRASENIYSNLAWYQQKQGKSPQLLVYAATNLADGVPSRFSGSGSGTQYSLKINSLQSEDFGSYYCQHFWGTPTFGGGTKLEIK", 12600],
  ["Nectin-4 3C12H/3C12L (recombinant chimeric antibody) (antibody, V domains shown) VH: QVQLKQSGPGLVQPSQSLSITCTVSGFSLTTYGVHWVRQSPGKGLEWLGVIWSGGNTDYNAAFISRLSISKDNSKSQVFFKMNSLQADDTAIYYCARMTHWYFDVWGTGTTVTVSS VL: DIVMTQSQKFMSTTVGDRVSITCKASQNVVTAVAWYQQKPGQSPKLLIYSASNRYTGVPDRFTGSGSGTDFTLTISYMQSEDLADYFCQQYSSYPLTFGAGTKLELK", 10600],
  ["Nectin-4 7H10H/7H10L (recombinant chimeric antibody) (antibody, V domains shown) VH: QVQLQQPGAELVKPGASVKLSCKASGYTFTTYWMHWVKQRPGRGLEWIGGIDPYGAHIKYNEMFKTKATLTVDKPSSTAYMQLSSLTSEDSAVYYCARGDYSNWWWTYWGQGTLVTVSA VL: DIVMTQSQKFMSTTVGDRVSITCKASQNVGTAVAWYQQIPGQSPKLLIYSASNRYTGVPDRFTGSGSGTDFTLTITNMQSEDLADYFCQHYSSYPWTFGGGTKLEIK", 14100],
  ["Nectin-4 Hybridoma 6C8H/6C8L (recombinant chimeric antibody) (antibody, V domains shown) VH: QVQLKQSGPGLVQPSQSLSITCTVSGFSLSTYGVHWVRQSPGKGLEWLGVIWSGGSTDYNAAFISRLTISKDNSKSQIFFKMNSLQADDTAIYYCARMMSWYFDVWGTGTTVTVSS VL: DIVMTQSQKFMSTSVGDRVSVTCKASQNVVTNVAWYQQKPGQSPKALIYSASYRYSGVPDRFTGSGSGTDFTLTISNVQSEDLAEYFCQQYNSYPLTFGAGTKLELK", 11400],
  ["Nectin-4 12E11H/12E11L (recombinant chimeric antibody) (antibody, V domains shown, also called parental 12E11 clone) VH: QVQLKQSGPGLVQPSQSLSITCTVSGFSLTTYGVHWVRQSPGKGLEWLGVIWSGGSTDCNGAFISRLSIIKDNSKSQVFFKMNSLQADDTAIYYCARMTHWYFDVWGTGTTVTVSS VL: DIVMTQSQKFMSTTVGDRVSITCKASQNVNTAVAWYQQKPGQSPKLLIYSASYRYTGVPDRFTGSGSGTDFTLTISNMQSEDLADYFCQQYSNYPLTFGAGTKLELK", 10400],
  ["Enfortumab (antibody, V domains shown) VH: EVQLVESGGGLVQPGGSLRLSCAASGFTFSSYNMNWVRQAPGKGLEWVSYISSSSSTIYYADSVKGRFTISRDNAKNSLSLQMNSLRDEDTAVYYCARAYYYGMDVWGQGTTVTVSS VL: DIQMTQSPSSVSASVGDRVTITCRASQGISGWLAWYQQKPGKAPKFLIYAASTLQSGVPSRFSGSGSGTDFTLTISSLQPEDFATYYCQQANSFPPTFGGGTKVEIKR", 20000]
]}
